# experimental_target: human recombinant histamine H2 receptor (Homo sapiens, UniProt P25021)
# Construct: expressed in transfected cells; host or cells: CHO-K1 cells
# Sequence (P25021 whole entry): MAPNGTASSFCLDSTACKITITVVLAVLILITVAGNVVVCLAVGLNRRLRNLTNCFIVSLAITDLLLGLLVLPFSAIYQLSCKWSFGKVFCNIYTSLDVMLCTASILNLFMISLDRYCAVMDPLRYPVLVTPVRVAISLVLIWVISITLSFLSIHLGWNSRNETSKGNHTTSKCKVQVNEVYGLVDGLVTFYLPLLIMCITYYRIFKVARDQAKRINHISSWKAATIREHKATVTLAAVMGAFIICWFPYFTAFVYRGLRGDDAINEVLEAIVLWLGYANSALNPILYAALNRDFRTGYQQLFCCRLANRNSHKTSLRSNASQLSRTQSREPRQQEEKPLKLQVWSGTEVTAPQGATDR
# method: Histamine H2 radioligand binding ([125I]aminopotentidine)
# recorded_conditions: compound at 1 μM; CHO K1 cells; read-out: Histamine Binding (1 μM) H2, percent inhibition of specific binding
What inhibition at 1 µM was measured for each of the following?
Answer with a number only, understood to be in %.

Data request: So what's the measured inhibition at 1 µM for this one? Cc1ccc2c(c1)c1c(n2CCNC(=O)C2CCNCC2)CCN(C)C1 [Compound 65]
Data returned: -7

Data request: Any idea what its inhibition at 1 µM is? The molecule is Cc1ccc2c(c1)c1c(n2CCC#N)CCN(C)C1 [CD92]
Data returned: 8

Data request: GET /values?readout=inhibition at 1 µM&item= CN1CCc2c(c3cc(Cl)ccc3n2CC(=O)OCc2ccccc2)C1 [Compound 13]
Data returned: 51

Data request: Recorded inhibition at 1 µM of CN1CCc2c(c3cc(Cl)ccc3n2CCC(=O)O)C1 [CD55] , please.
Data returned: -2

Data request: Given CN1CCc2c(c3cc(Cl)ccc3n2CCC(=O)NC2CCCC2)C1 [Compound 31] , state its recorded inhibition at 1 µM.
Data returned: 20

Data request: GET /values?readout=inhibition at 1 µM&item= Cc1ccc2c(c1)c1c(n2CC#N)CCN(C)C1 [CD61]
Data returned: 15

Data request: Form field: reported inhibition at 1 µM of Cc1ccc2c(c1)c1c(n2CC(=O)NC(C)(C)C)CCN(C)C1 [Compound 24]
Data returned: 5

Data request: Need inhibition at 1 µM of CC(C)OC(=O)CCn1c2c(c3cc(Cl)ccc31)CN(C)CC2 [Compound 17] , thanks.
Data returned: 64

Data request: For Cc1ccc2c(c1)c1c(n2CCC(N)=O)CCN(C)C1 [Compound 46] , what is its reported inhibition at 1 µM?
Data returned: -5

Data request: For Cc1ccc2c(c1)c1c(n2CCC(=O)NCc2ccccc2)CCN(C)C1 [Compound 59] , what is its reported inhibition at 1 µM?
Data returned: 5

Data request: For the molecule shown here, Cc1ccc2c(c1)c1c(n2CCNC(=O)C2CCCC2)CCN(C)C1 [Compound 68] , give the reported inhibition at 1 µM.
Data returned: 31

Data request: inhibition at 1 µM lookup needed for Cc1ccc2c(c1)c1c(n2CCC(=O)NC2CCCCC2)CCN(C)C1 [Compound 3] , thanks.
Data returned: 23

Data request: Which inhibition at 1 µM is listed for Cc1ccc2c(c1)c1c(n2CCO)CCN(C)C1 [CD90] ?
Data returned: 11

Data request: Which inhibition at 1 µM is listed for CNC(=O)CCn1c2c(c3cc(C)ccc31)CN(C)CC2 [Compound 1] ?
Data returned: 8

Data request: What value of inhibition at 1 µM has been reported for the following molecule? CCNC(=O)CCCn1c2c(c3cc(C)ccc31)CN(C)CC2 [Compound 6]
Data returned: 0

Data request: Record request: inhibition at 1 µM value, item CCOC(=O)Cn1c2c(c3cc(C)ccc31)CN(C)CC2 [CD57]
Data returned: 28

Data request: Requested field: inhibition at 1 µM. Item: Cc1ccc2c(c1)c1c(n2CCNC(=O)C2CCCNC2)CCN(C)C1 (stereo not drawn) [Compound 9]
Data returned: -44

Data request: What inhibition at 1 µM value was documented for this molecule, Cc1ccc2c(c1)c1c(n2CCC(=O)NC(C)(C)C)CCN(C)C1 [Compound 28] ?
Data returned: 18

Data request: I'd like to know its inhibition at 1 µM. The molecule in question is CN1CCc2c(c3cc(Cl)ccc3n2CCCO)C1 [CD87]
Data returned: 18

Data request: // lookup inhibition at 1 µM for Cc1ccc2c(c1)c1c(n2CCNC(=O)c2ccncc2C)CCN(C)C1 [Compound 69]
Data returned: 14

Data request: Can you share its inhibition at 1 µM? I mean this molecule: CN1CCc2c(c3cc(Cl)ccc3n2CC(=O)N(C)C)C1 [Compound 48]
Data returned: 4

====

# experimental_target: human recombinant serotonin (5-Hydroxytryptamine) 5-HT2C receptor (Homo sapiens, UniProt P28335)
# Construct: expressed in transfected cells; host or cells: CHO-K1 cells
# Sequence (P28335 33-458): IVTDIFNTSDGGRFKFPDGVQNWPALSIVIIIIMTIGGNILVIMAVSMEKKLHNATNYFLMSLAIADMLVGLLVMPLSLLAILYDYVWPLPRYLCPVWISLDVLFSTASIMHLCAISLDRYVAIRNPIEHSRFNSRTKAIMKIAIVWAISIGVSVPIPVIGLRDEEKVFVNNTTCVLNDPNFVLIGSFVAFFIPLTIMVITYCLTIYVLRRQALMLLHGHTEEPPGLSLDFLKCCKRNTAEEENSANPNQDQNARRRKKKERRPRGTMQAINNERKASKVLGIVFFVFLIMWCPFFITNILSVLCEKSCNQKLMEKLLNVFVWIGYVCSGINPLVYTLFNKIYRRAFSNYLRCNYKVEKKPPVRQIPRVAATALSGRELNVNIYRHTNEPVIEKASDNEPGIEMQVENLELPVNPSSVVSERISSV
# method: Serotonin 5-HT2C radioligand binding ([3H]Mesulergine)
# recorded_conditions: compound at 1 μM; CHO-K1 cells; read-out: Serotonin (1 μM) 5-HT2C, percent inhibition of specific binding
Assign met to entries whose inhibition at 1 µM meets or exceeds 70%; assign not met to the rest.

Data request: Can Cc1ccc2c(c1)c1c(n2CCC(=O)NCC2CCCCC2)CCN(C)C1 [Compound 30] be said to have inhibition at 1 µM at or above 70%?
Data returned: met

Data request: Could you verify whether the entry CNC(=O)CCn1c2c(c3cc(C)ccc31)CN(C)CC2 [Compound 1] shows inhibition at 1 µM of no less than 70%?
Data returned: not met

Data request: hey, is inhibition at 1 µM for this one >= 70%? CN1CCc2c(c3cc(Cl)ccc3n2CC(N)=O)C1 [Compound 45]
Data returned: not met

Data request: Threshold query (inhibition at 1 µM >= 70%) on CN1CCc2c(c3cc(Cl)ccc3n2CCC(=O)OCC2CCCCC2)C1 [Compound 20]
Data returned: met

Data request: Check this compound for inhibition at 1 µM at or above 70%: CCNC(=O)CCn1c2c(c3cc(C)ccc31)CN(C)CC2 [Compound 2]
Data returned: not met

Data request: Test whether the compound C#CCn1c2c(c3cc(C)ccc31)CN(C)CC2 [CD73] records inhibition at 1 µM of 70% or higher.
Data returned: met

Data request: Given the entry Cc1ccc2c(c1)c1c(n2CCC(=O)NC2CCCCC2)CCN(C)C1 [Compound 3] , answer whether its inhibition at 1 µM meets or surpasses 70%.
Data returned: not met

Data request: Is the recorded value of inhibition at 1 µM equal to or greater than 70% for this compound? CN1CCc2c(c3cc(Cl)ccc3n2CC(=O)NC2CCCC2)C1 [Compound 27]
Data returned: not met

Data request: Hi, just wondering whether CCOC(=O)CCn1c2c(c3cc(C)ccc31)CN(C)CC2 [CD1] shows inhibition at 1 µM of 70% or higher.
Data returned: met

Data request: Given the entry CN1CCc2c(c3cc(Cl)ccc3n2CCC(=O)NC2CCCC2)C1 [Compound 31] , answer whether its inhibition at 1 µM meets or surpasses 70%.
Data returned: met

Data request: Say whether Cc1ccc2c(c1)c1c(n2CCC(=O)NC(C)C)CCN(C)C1 [Compound 53] shows inhibition at 1 µM of 70% or more.
Data returned: not met

Data request: Quick check: does Cc1ccc2c(c1)c1c(n2CCNC(=O)OCC(Cl)(Cl)Cl)CCN(C)C1 [Compound 8] have inhibition at 1 µM greater than or equal to 70%?
Data returned: met

Data request: Hello, I need to know if CN1CCc2c(c3cc(Cl)ccc3n2CC(=O)O)C1 [CD46] has measured inhibition at 1 µM not below 70%. Thanks!
Data returned: not met

Data request: Please indicate if the recorded inhibition at 1 µM for CCCCOC(=O)Cn1c2c(c3cc(Cl)ccc31)CN(C)CC2 [Compound 52] meets or exceeds 70%.
Data returned: met

Data request: Decide: inhibition at 1 µM of Cc1ccc2c(c1)c1c(n2CCNC(=O)C2CCCCC2)CCN(C)C1 [Compound 62] >= 70%?
Data returned: not met

Data request: Answer whether inhibition at 1 µM of Cc1ccc2c(c1)c1c(n2CCNC(=O)c2ccncc2C)CCN(C)C1 [Compound 69] is greater than or equal to 70%.
Data returned: not met

Data request: Would you say CN1CCc2c(c3cc(Cl)ccc3n2CCC(=O)OC2CCCC2)C1 [Compound 21] shows inhibition at 1 µM at minimum 70%?
Data returned: met

Data request: Threshold query (inhibition at 1 µM >= 70%) on CN1CCc2c(c3cc(Cl)ccc3n2CCCO)C1 [CD87]
Data returned: met

Data request: Does Cc1ccc2c(c1)c1c(n2CC(=O)NCc2ccccc2)CCN(C)C1 [Compound 25] have a reported inhibition at 1 µM of at least 70%?
Data returned: not met

Data request: # bool: inhibition at 1 µM of Cc1ccc2c(c1)c1c(n2CC(=O)O)CCN(C)C1 [CD58] >= 70%
Data returned: not met

Data request: Given CN1CCc2c(c3cc(Cl)ccc3n2CC(=O)OC(C)(C)C)C1 [Compound 12] , state whether its inhibition at 1 µM is at least 70%.
Data returned: met

Data request: inhibition at 1 µM >= 70% for CCOC(=O)CCn1c2c(c3cc(Cl)ccc31)CN(C)CC2 [CD17] ?
Data returned: met

Data request: Identify whether the reported inhibition at 1 µM of the following compound is 70% or greater: CCOC(=O)Cn1c2c(c3cc(C)ccc31)CN(C)CC2 [CD57]
Data returned: met

Data request: Hi, just wondering whether Cc1ccc2c(c1)c1c(n2CCC(=O)Nc2ccccc2)CCN(C)C1 [Compound 29] shows inhibition at 1 µM of 70% or higher.
Data returned: met

Data request: Textbook exercise: given the entry Cc1ccc2c(c1)c1c(n2CCBr)CCN(C)C1 [CD91] , state whether its inhibition at 1 µM is greater than or equal to 70%.
Data returned: met

Data request: Tell me whether inhibition at 1 µM is at least 70% here: Cc1ccc2c(c1)c1c(n2CCC(N)=O)CCN(C)C1 [Compound 46]
Data returned: not met

Data request: Decide: is the reported value of inhibition at 1 µM for CN1CCc2c(c3cc(Cl)ccc3n2CC(=O)OC2CCCC2)C1 [Compound 15] equal to or greater than 70%?
Data returned: met

Data request: Check the entry CN1CCc2c(c3cc(Cl)ccc3n2CC(=O)NC2CCCCC2)C1 [Compound 60] : does inhibition at 1 µM equal or exceed 70%?
Data returned: not met

Data request: For this compound, is measured inhibition at 1 µM 70% or higher? Cc1ccc2c(c1)c1c(n2CCNC(=O)C(C)C)CCN(C)C1 [Compound 61]
Data returned: not met

Data request: Check if inhibition at 1 µM >= 70% (inclusive). Item: Cc1ccc2c(c1)c1c(n2CC(N)=O)CCN(C)C1 [Compound 64]
Data returned: not met

Data request: Is it the case that Cc1ccc2c(c1)c1c(n2CCO)CCN(C)C1 [CD90] has inhibition at 1 µM reaching or exceeding 70%?
Data returned: met

Data request: Could you please find out whether CN1CCc2c(c3cc(Cl)ccc3n2CCC(=O)N(C)C)C1 [Compound 49] has inhibition at 1 µM that meets 70% or exceeds it?
Data returned: not met

Data request: Threshold query (inhibition at 1 µM >= 70%) on Cc1ccc2c(c1)c1c(n2CC(=O)NCC2CCCCC2)CCN(C)C1 [Compound 26]
Data returned: not met

Data request: // inclusive: inhibition at 1 µM at least 70%? input: CN1CCc2c(c3cc(Cl)ccc3n2CCC(=O)OCc2ccccc2)C1 [Compound 19]
Data returned: met

Data request: Hello, I need to know if Cc1ccc2c(c1)c1c(n2CC#N)CCN(C)C1 [CD61] has measured inhibition at 1 µM not below 70%. Thanks!
Data returned: met
